molecular target: T1, Human CD137 ECD (human); assay: single mutant vs template dBBDu183H
T1 construct: also called 4-1BB
T1 sequence (chain, as listed by the source limits assumed): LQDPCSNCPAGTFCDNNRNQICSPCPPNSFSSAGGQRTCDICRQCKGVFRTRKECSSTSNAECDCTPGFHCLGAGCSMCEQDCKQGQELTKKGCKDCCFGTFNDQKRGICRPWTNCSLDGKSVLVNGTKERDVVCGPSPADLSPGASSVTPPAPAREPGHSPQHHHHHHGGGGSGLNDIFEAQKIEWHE
PROPERTY_LABEL: fold change of affinity (fold)
Answers are plain numbers, in fold.

Previously resolved entries follow.
H183/L072 VH T28V (antibody, name in Kabat numbering, V domains shown) VH: QVQLVESGGGLVQPGRSLRLSCAASGFVFSNAWMHWVRQAPGKGLEWVAQIKDKGNAYAAYYAPSVKGRFTISRDDSKNSIYLQMNSLKTEDTAVYYCHYVHYASASTVLPAFGVDAWGQGTTVTVSS VL: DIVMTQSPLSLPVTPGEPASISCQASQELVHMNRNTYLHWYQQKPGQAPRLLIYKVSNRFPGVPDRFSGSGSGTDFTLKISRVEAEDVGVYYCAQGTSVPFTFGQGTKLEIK; 1.2
H183/L072 VH K52bP (antibody, name in Kabat numbering, V domains shown) VH: QVQLVESGGGLVQPGRSLRLSCAASGFTFSNAWMHWVRQAPGKGLEWVAQIKDPGNAYAAYYAPSVKGRFTISRDDSKNSIYLQMNSLKTEDTAVYYCHYVHYASASTVLPAFGVDAWGQGTTVTVSS VL: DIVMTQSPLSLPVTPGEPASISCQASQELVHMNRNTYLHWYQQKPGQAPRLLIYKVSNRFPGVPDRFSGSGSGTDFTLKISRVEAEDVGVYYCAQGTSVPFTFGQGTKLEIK; 0.4
H183/L072 VH G52cS (antibody, name in Kabat numbering, V domains shown) VH: QVQLVESGGGLVQPGRSLRLSCAASGFTFSNAWMHWVRQAPGKGLEWVAQIKDKSNAYAAYYAPSVKGRFTISRDDSKNSIYLQMNSLKTEDTAVYYCHYVHYASASTVLPAFGVDAWGQGTTVTVSS VL: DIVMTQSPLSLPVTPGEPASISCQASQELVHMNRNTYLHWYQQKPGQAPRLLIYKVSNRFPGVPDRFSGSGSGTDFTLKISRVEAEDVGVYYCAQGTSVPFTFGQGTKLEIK; 1.3
H183/L072 VH P61L (antibody, name in Kabat numbering, V domains shown) VH: QVQLVESGGGLVQPGRSLRLSCAASGFTFSNAWMHWVRQAPGKGLEWVAQIKDKGNAYAAYYALSVKGRFTISRDDSKNSIYLQMNSLKTEDTAVYYCHYVHYASASTVLPAFGVDAWGQGTTVTVSS VL: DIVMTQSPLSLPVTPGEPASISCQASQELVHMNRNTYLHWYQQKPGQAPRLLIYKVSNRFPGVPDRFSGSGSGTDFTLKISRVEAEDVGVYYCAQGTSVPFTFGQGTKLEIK; 0.6

Next item in the queue.
# query: fold change of affinity of entry H183/L072 VH A54Y (antibody, name in Kabat numbering, V domains shown) VH: QVQLVESGGGLVQPGRSLRLSCAASGFTFSNAWMHWVRQAPGKGLEWVAQIKDKGNYYAAYYAPSVKGRFTISRDDSKNSIYLQMNSLKTEDTAVYYCHYVHYASASTVLPAFGVDAWGQGTTVTVSS VL: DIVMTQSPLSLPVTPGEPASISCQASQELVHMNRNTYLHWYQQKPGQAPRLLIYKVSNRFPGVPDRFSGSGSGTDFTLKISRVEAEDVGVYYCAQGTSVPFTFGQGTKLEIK
0.9
